settings: 298.15 K, Drop volume
Numbers after ± are expanded uncertainties.
Outcome Measure: surface tension liquid-gas

The cases that follow already have their surface tension liquid-gas on record.
CCCOC(=O)CC [propyl propanoate]: 24.1 ± 0.19 mN/m
Cc1ccc(C)cc1 [1,4-dimethylbenzene]: 27.7 ± 0.21 mN/m

Quick one: surface tension liquid-gas of Cc1ccccc1C [1,2-dimethylbenzene] ?
29.27 ± 0.21 mN/m

Quick one: surface tension liquid-gas of Cc1cccc(C)c1 [1,3-dimethylbenzene] ?
28.03 ± 0.21 mN/m
